The reported numbers originate from ChEMBL document CHEMBL1149331.

target.or.test.system: Glutathione S-transferase P (Homo sapiens, UniProt P09211)
Sequence (P09211 2-210 limits assumed): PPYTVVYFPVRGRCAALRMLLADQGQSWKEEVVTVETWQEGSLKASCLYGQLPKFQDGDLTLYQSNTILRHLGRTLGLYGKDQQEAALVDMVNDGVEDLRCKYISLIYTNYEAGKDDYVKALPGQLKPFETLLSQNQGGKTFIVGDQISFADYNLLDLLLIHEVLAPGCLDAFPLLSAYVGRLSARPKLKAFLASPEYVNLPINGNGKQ
assay.details: Inactivation of recombinant human Glutathione S-transferase P
K obs for assorted molecules

CCCCCCCCC1C/C(=C\Br)OC1=O (configuration not stated) : 0.0382
O=C1O/C(=C/Br)CC1Cc1ccc2ccccc2c1 (configuration not stated) : 0.0499
CCCCCCCC1C/C(=C\Br)OC1=O (configuration not stated) : 0.0608
O=C1O/C(=C/Br)CC1CC1CCCCC1 (configuration not stated) : 0.0438

Result for O=C1O/C(=C/Br)CC1CCCCc1ccccc1 (configuration not stated) , tested on Glutathione S-transferase P (Homo sapiens, UniProt P09211), K obs: 0.0366

Kindly note: Glutathione S-transferase P (Homo sapiens, UniProt P09211), O=C1O/C(=C/Br)CC1C/C=C/c1ccc(C(F)(F)F)cc1 (configuration not stated) , K obs value reported: 0.0364

Glutathione S-transferase P (Homo sapiens, UniProt P09211) assay, molecule CCCCCCCCCC1C/C(=C\Br)OC1=O (configuration not stated) , recorded K obs = 0.0359

Form field K obs for item O=C1O/C(=C/Br)CC1c1ccccc1 (configuration not stated) on Glutathione S-transferase P (Homo sapiens, UniProt P09211): 0.15

Recorded K obs for C/C(Br)=C1/CC(C/C=C/c2ccccc2)C(=O)O1 (configuration not stated) on Glutathione S-transferase P (Homo sapiens, UniProt P09211) was 0.0322

Observed K obs, Glutathione S-transferase P (Homo sapiens, UniProt P09211), CCCCCCC1C/C(=C\Br)OC1=O (configuration not stated) : 0.0847

The molecule O=C1O/C(=C/I)CC1C/C=C/c1ccccc1 (configuration not stated) on Glutathione S-transferase P (Homo sapiens, UniProt P09211): K obs was 0.0421
